- Test system: H3N2 (A/Moscow/10/99)
- assay-summary: microbe, parasite or virus in culture
- Type: cell-based, influenza A virus
- condition: read-out: EC50 H3N2
recorded-endpoint: pEC50
A value of pEC50 is the negative decimal logarithm of a concentration given in moles per litre.

Provide measured pEC50 value, entry: CCC(CC)O[C@@H]1C=C(C(=O)O)C[C@H](N)[C@H]1NC(C)=O [OSC, oseltamivir carboxylate, reference compound]
6.37

* * *

recorded-endpoint: IC50

For UniProt:A1ILL9, give IC50 of the listed compound: CCC(CC)O[C@@H]1C=C(C(=O)O)C[C@H](n2cc(-c3ccc(-c4ccccc4)cc3)nn2)[C@H]1NC(C)=O [Compound 1a]
> 100 µM

State IC50 (UniProt:A1ILL9) of CCC(CC)O[C@@H]1C=C(C(=O)O)C[C@H](n2cc(-c3cccc(N)c3)nn2)[C@H]1NC(C)=O [Compound 1j] .
3.6 µM

Under UniProt:A1ILL9: report IC50 of CCC(CC)O[C@@H]1C=C(C(=O)O)C[C@H](n2nncc2-c2ccc(C(=O)O)cc2)[C@H]1NC(C)=O [Compound 2f] .
3.92 µM

Report its IC50 with UniProt:A1ILL9 as the test system: CCC(CC)O[C@@H]1C=C(C(=O)O)C[C@H](n2nncc2-c2cccc(C(=O)O)c2)[C@H]1NC(C)=O [Compound 2g]
2.04 µM
